tested on: Trypanosoma cruzi; test: Trypanosoma cruzi phosphomannomutase and mannose-1-phosphate guanylyltransferase assay; assay type: functional; parameters: scale not given: direction of the effect not stated beside the values; settings: 10 µM
parameter: Percent Effect (%)

# molecule, parameter, endpoint-value
data = [
    ("CCC1CN(CC(=O)Nc2sccc2C#N)CCO1 (stereo not given)", "Percent Effect", 0.376),
    ("O=C(c1cccnc1-n1cncn1)N1CCc2ccccc2C1", "Percent Effect", 4.25),
    ("Cn1cccc1CNC(=O)CCCc1nnc2ccccn12", "Percent Effect", 3.14),
    ("CCc1cnc(CN(C)C2CCN(CCS(C)(=O)=O)C2)o1 (stereo not given)", "Percent Effect", -5.54),
    ("O=C(c1csc(-c2cccs2)n1)N1CCCC1Cn1cccn1 (stereo not given)", "Percent Effect", -3.83),
    ("COc1ccc(-c2nc(CN3CC(n4cc(C)cn4)C3)no2)cc1", "Percent Effect", 4.03),
    ("O=C(c1ccncc1)N1Cc2ccccc2OC2(CCOCC2)C1", "Percent Effect", 0.395),
    ("CC(C)(C)c1nc(CN2CCCC(Cn3cncn3)C2)cs1 (stereo not given)", "Percent Effect", 5),
    ("c1ncn(CC2CCCN(Cc3nc(C4CC4)no3)C2)n1 (stereo not given)", "Percent Effect", 8.59),
    ("COCCOc1ccc(NC(=O)N2CCCC2c2ccncc2)cn1 (stereo not given)", "Percent Effect", 2.64),
    ("COc1c(C)cnc(CSc2nnc(C)s2)c1C", "Percent Effect", 6.33),
    ("COc1cc(C(=O)NC(CC(=O)O)c2cccs2)cc(Cl)c1OC (stereo not given)", "Percent Effect", -3.79),
    ("CSC(C)C(=O)N1CCCN(Cc2cscn2)CC1 (stereo not given)", "Percent Effect", -1.13),
    ("CCN1CC2(CC1=O)CN(Cc1cnn(C)c1)CCN(C(C)=O)C2 (stereo not given)", "Percent Effect", -2.34),
    ("CC(C)(C)C(=O)N1CCCC1c1nc(O)cc(-c2ccccn2)n1 (stereo not given)", "Percent Effect", 3.36),
    ("O=C(CCCOc1ccc(F)cc1F)N1CCCC1Cn1cccn1 (stereo not given)", "Percent Effect", 4.01),
    ("O=C(c1cnccn1)N1C[C@@H]2CC[C@H](C1)N(C(=O)Cc1ccsc1)C2", "Percent Effect", -4.82),
    ("CNc1nc(CNC(=O)Nc2cccc(F)c2)cs1", "Percent Effect", -1.39),
    ("CCN(CC)C(=O)CCn1ncc2c(Cl)cccc21", "Percent Effect", -5.89),
    ("O=C(c1c[nH]c(=O)c(Cl)c1)N1C[C@@H]2CC[C@H](C1)N(Cc1ccccc1)C2", "Percent Effect", 2.58),
    ("CC(C)n1ccnc1C1CCN(Cc2ccc(Cl)s2)CC1", "Percent Effect", 7.96),
    ("Cc1cnn(C2CCCN(C(=O)c3cccc(Cn4ccnc4)c3)C2)c1 (stereo not given)", "Percent Effect", 2.36),
    ("CC1CCN(S(=O)(=O)c2cccn(CC(=O)N3CCOCC3)c2=O)CC1", "Percent Effect", -4.91),
    ("CC(C)Oc1ncccc1CNC(=O)c1cc[nH]n1", "Percent Effect", -3.3),
    ("COCc1nc(CN2CCC3(CCCO3)CCC2=O)no1 (stereo not given)", "Percent Effect", 7.3),
]
